System: PC-9
method: cells
measurement_context: Homo sapiens, PC-9, 72 h
readout_label: IC50
Number first, unit second: that is the form wanted.

Query COc1cc(N2CCC(N3CCN(C)CC3)CC2)ccc1Nc1ncc(Cl)c(Nc2ccccc2P(C)(C)=O)n1 on PC-9; IC50 returned: 599 nM

###

method: Oral bioavailability in CD-1 mouse at 10 mg/kg
Assay type: ADME, organism-based
measurement_context: in vivo
readout_label: bioavailability (%)
One number for each entry, in %.

The compound identified as CCc1cc(Nc2ncc(Br)c(Nc3ccc4nccnc4c3P(C)(C)=O)n2)c(OC)cc1N1CCC(N2CCN(CCS(C)(=O)=O)CC2)CC1 registered its bioavailability at 48.9

###

assay_system: Epidermal growth factor receptor (Homo sapiens)
readout_label: IC50 (nM)
Answers are plain numbers, in nM.

The recorded IC50 for CCc1cc(Nc2ncc(Br)c(Nc3ccc4nccnc4c3P(C)(C)=O)n2)c(OC)cc1N1CCC(N2CCN(CCS(C)(=O)=O)CC2)CC1 is 10.4

###

assay_system: Epidermal growth factor receptor (Homo sapiens, UniProt P00533, L858R)
Sequence (P00533 25-1210 L858R limits assumed): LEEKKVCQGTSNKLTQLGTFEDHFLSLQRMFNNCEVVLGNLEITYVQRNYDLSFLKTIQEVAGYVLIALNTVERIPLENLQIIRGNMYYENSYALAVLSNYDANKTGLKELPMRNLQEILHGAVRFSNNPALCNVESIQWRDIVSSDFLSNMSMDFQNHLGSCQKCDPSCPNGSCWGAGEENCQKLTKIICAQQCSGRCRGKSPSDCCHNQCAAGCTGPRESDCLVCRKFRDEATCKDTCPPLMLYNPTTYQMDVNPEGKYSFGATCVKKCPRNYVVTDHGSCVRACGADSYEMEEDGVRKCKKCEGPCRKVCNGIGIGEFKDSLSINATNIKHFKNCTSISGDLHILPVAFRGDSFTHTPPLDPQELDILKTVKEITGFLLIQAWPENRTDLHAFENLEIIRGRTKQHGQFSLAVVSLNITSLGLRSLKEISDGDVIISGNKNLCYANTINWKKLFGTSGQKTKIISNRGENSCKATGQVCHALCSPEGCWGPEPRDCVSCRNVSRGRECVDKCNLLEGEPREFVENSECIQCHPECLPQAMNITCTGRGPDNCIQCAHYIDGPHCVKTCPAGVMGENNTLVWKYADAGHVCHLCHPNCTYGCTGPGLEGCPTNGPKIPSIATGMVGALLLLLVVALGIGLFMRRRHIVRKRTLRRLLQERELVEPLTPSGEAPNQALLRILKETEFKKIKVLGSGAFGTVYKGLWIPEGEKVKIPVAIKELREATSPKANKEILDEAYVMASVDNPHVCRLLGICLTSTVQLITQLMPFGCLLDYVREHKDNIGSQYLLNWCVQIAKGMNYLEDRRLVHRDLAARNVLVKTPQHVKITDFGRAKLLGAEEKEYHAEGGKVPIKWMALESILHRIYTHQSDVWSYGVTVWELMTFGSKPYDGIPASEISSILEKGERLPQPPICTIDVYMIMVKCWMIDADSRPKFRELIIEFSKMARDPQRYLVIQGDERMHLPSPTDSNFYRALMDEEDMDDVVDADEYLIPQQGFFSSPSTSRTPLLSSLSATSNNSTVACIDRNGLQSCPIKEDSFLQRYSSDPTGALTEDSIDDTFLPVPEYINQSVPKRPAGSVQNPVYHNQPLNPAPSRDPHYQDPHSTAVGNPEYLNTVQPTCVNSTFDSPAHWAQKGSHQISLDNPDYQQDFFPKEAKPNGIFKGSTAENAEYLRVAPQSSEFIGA
method: Inhibition of EGFR L858R mutant (unknown origin)
readout_label: IC50 (nM)
Numbers only, in nM.

Data point: CCc1cc(Nc2ncc(Br)c(Nc3ccc4nccnc4c3P(C)(C)=O)n2)c(OC)cc1N1CCC(N2CCN(CCS(C)(=O)=O)CC2)CC1 ; IC50 = 3.1

###

method: Half-life in CD-1 mouse at 2 mg/kg, iv
Format: ADME, organism-based
measurement_context: in vivo
readout_label: half-life (h)
Numbers only, in h.

CCc1cc(Nc2ncc(Br)c(Nc3ccc4nccnc4c3P(C)(C)=O)n2)c(OC)cc1N1CCC(N2CCN(CCS(C)(=O)=O)CC2)CC1 has a reported half-life of 3.3

###

assay_system: Epidermal growth factor receptor (Homo sapiens, UniProt P00533, EX19DEL/T790M)
Sequence (P00533 whole entry, looked up, stated change not applied): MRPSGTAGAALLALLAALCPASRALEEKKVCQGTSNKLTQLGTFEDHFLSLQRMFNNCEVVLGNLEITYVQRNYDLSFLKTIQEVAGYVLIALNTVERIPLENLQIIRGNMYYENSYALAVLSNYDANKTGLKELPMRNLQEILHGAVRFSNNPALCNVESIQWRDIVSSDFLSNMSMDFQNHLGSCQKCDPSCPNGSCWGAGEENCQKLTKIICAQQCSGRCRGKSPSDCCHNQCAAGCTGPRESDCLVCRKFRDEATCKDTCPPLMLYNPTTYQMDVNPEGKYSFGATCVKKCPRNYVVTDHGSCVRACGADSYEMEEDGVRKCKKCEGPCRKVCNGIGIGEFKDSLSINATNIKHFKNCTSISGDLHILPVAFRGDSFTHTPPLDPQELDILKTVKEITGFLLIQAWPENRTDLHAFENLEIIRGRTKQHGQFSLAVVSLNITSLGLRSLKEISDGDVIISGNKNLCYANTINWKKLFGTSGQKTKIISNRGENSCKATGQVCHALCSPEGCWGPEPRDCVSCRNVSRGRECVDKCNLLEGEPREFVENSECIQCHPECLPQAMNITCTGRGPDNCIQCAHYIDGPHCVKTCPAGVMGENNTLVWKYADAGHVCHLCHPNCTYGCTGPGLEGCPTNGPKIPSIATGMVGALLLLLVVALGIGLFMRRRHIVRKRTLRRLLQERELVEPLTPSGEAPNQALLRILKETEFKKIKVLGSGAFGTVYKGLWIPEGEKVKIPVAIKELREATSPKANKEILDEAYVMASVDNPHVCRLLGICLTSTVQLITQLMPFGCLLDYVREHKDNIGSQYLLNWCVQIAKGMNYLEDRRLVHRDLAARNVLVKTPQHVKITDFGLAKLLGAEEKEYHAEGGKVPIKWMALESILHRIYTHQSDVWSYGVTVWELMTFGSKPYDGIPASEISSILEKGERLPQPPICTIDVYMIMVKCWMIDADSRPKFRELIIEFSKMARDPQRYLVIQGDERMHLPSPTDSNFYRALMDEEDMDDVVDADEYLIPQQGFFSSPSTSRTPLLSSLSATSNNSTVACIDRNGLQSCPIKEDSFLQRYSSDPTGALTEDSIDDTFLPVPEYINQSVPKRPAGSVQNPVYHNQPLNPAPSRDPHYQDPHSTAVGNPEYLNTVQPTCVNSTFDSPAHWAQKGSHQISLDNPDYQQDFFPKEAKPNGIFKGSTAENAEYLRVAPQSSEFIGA
method: Inhibition of EGFR del19/T790M mutant (unknown origin)
readout_label: IC50 (nM)
Numbers only, in nM.

Given item CCc1cc(Nc2ncc(Br)c(Nc3ccc4nccnc4c3P(C)(C)=O)n2)c(OC)cc1N1CCC(N2CCN(CCS(C)(=O)=O)CC2)CC1 , the value recorded as its IC50 is 0.1

###

assay_system: Epidermal growth factor receptor (Homo sapiens, UniProt P00533, EX19DEL)
Sequence (P00533 whole entry, looked up, stated change not applied): as the sequence (P00533 whole entry, looked up, stated change not applied) above
method: Inhibition of EGFR del19 mutant (unknown origin)
readout_label: pIC50
Answers are plain numbers, as −log10 of the molar value.

Entry CCc1cc(Nc2ncc(Br)c(Nc3ccc4nccnc4c3P(C)(C)=O)n2)c(OC)cc1N1CCC(N2CCN(CCS(C)(=O)=O)CC2)CC1 ; pIC50 = 9.05

###

assay_system: Epidermal growth factor receptor (Homo sapiens, UniProt P00533, L858R/T790M)
Sequence (P00533 25-1210 T790M/L858R limits assumed): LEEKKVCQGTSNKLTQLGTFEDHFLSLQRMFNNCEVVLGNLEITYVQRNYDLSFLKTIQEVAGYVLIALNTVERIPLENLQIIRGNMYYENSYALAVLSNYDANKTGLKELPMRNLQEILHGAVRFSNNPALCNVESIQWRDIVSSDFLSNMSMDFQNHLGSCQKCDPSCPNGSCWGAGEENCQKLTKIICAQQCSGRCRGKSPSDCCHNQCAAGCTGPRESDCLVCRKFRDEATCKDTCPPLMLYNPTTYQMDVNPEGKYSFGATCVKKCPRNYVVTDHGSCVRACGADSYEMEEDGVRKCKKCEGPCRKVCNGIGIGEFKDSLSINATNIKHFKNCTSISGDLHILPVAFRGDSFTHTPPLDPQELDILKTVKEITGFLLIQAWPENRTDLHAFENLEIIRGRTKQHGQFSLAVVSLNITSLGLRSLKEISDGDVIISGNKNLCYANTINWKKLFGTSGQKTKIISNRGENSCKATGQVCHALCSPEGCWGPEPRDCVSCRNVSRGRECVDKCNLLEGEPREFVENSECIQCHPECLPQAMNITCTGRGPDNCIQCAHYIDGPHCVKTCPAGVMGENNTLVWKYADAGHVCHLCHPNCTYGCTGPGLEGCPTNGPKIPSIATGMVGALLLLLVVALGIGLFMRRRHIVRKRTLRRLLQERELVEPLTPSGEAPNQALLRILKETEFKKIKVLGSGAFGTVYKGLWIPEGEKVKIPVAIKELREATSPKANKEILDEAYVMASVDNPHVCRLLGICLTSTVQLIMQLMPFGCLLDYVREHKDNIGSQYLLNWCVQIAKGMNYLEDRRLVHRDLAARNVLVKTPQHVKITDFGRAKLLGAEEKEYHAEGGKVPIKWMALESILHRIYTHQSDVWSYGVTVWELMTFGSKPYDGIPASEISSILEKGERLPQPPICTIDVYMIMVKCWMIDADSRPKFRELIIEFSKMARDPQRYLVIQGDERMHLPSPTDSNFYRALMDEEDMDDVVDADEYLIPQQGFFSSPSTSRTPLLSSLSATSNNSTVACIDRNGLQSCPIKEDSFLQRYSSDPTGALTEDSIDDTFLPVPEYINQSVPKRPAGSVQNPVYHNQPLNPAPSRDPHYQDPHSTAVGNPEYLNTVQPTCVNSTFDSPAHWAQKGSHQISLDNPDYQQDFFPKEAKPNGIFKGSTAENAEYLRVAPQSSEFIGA
method: Inhibition of EGFR L858R/T790M mutant (unknown origin)
readout_label: IC50
Form entry: enter the amount, then its unit.

Entry under test: CCc1cc(Nc2ncc(Br)c(Nc3ccc4nccnc4c3P(C)(C)=O)n2)c(OC)cc1N1CCC(N2CCN(CCS(C)(=O)=O)CC2)CC1 . Its IC50 was 0.2 nM

###

method: Cmax in CD-1 mouse at 10 mg/kg, po
Format: ADME, organism-based
Design: dose 10 mg/kg, route po
measurement_context: in vivo
readout_label: Cmax (ng/mL)
One number for each entry, in ng/mL.

Briefly, Cmax measured for CCc1cc(Nc2ncc(Br)c(Nc3ccc4nccnc4c3P(C)(C)=O)n2)c(OC)cc1N1CCC(N2CCN(CCS(C)(=O)=O)CC2)CC1 : 6600
